# Study target: Endothelial lipase (EL) (Homo sapiens (Human))
# Sequence (Q9Y5X9 21-500): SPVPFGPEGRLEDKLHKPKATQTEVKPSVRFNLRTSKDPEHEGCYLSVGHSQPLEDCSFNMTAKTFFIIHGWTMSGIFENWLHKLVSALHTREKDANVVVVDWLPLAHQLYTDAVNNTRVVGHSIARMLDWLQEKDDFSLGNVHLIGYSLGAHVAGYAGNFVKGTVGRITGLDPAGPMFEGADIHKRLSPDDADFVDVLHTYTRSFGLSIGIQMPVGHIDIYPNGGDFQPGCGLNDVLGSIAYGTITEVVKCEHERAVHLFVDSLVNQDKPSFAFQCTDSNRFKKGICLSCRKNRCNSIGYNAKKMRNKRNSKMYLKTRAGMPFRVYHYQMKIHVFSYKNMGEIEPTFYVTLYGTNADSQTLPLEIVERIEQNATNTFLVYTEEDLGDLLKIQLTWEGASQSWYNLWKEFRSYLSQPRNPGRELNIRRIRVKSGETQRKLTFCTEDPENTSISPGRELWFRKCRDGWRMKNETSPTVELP
# Experimental protocol: EL assay: endothelial lipase activity with fluorescent substrate A10070 in DMPG vesicles
# Format: biochemical
# Procedure: Endothelial lipase (EL) and hepatic lipase (HL) activities were measured using a fluorescent substrate, A10070, (Invitrogen, CA) doped into an artificial vesicle containing DMPG (Avanti Polar Lipids) as the excipient. […] The enzymatic assay was measured using 384-well white Optiplates. […] The reaction rates were measured on a Gemini plate reader with an excitation wavelength of 490 nm and an emission wavelength of 530 nm. […]
pIC50: −log10 of the molar value.
Quantity measured: pIC50

P: CS(=O)(=O)C(C(=O)NCCS(N)(=O)=O)c1nc2ccc(-c3ccnc(O)c3F)cc2s1 (centres unmarked)
Q: CC(C)S(=O)(=O)C(C(=O)NCCS(N)(=O)=O)c1nc2c(F)cc(-c3cccc(C(=O)OC(C)(C)C)c3)cc2s1 (centres unmarked)
Just curious, which one has the larger pIC50 reading, P or Q ? Kindly give the label for the entry you pick.
P
(P: 9.30, Q: 8.32)

A: CS(=O)(=O)C(C(=O)NCCS(N)(=O)=O)c1nc2cc(-c3cncnc3)ccc2s1 (centres unmarked)
B: NS(=O)(=O)CCNC(=O)C(c1nc2ccc(-c3ccccc3F)cc2s1)S(=O)(=O)Cc1ccc(OC(F)(F)F)cc1 (centres unmarked)
Hello, I am sorting some records. Could you say if A or B has the smaller pIC50 value? Field: selected label. Fill in the label of the entry you choose.
B

P: CS(=O)(=O)C(C(=O)NCc1cccc(S(N)(=O)=O)c1)c1nc2ccc(-c3ccccc3)cc2s1 (centres unmarked)
Q: COCCNC(=O)c1ccc(-c2cc3sc(C(C(=O)NCc4nnc(C)o4)S(C)(=O)=O)nc3cc2F)cc1 (centres unmarked)
# compare pIC50 for P vs Q ; return the one with the smaller value To answer, give the label that identifies your chosen option.
P

A: Cc1nnc(CNC(=O)C(c2nc3ccc(-c4ccc(C(=O)N5CC(C)(O)C5)cc4)cc3s2)S(C)(=O)=O)o1 (centres unmarked)
B: COCC(C)(C)NC(=O)c1ccc(-c2ccc3nc(C(C(=O)NCCS(N)(=O)=O)S(=O)(=O)CC4CC4)sc3c2)cc1 (centres unmarked)
C: COCCNC(=O)c1ccc(-c2ccc3sc(C(C(=O)NCCS(N)(=O)=O)S(C)(=O)=O)nc3c2)cc1 (centres unmarked)
Ascending by pIC50, please. Answer format: the labels, in the requested order.
A, B, C

Where do these numbers come from? They come from patent US8987314B2.
